- target of assay: σ2-receptor (Rattus norvegicus)
- Sequence (Q5U3Y7 1-176): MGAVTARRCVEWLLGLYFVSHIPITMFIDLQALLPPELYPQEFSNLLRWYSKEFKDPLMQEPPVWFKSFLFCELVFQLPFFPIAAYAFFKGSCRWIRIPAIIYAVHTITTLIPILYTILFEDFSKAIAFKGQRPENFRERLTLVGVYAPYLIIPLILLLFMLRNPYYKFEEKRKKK
measured attribute: pKi
pKi here: minus log base 10 of the concentration, concentration in moles per litre.

c1ccc(CCCN2CCC3(CC2)OCCc2c3cnn2-c2ccccc2)cc1: 6.99
Cn1ncc2c1C=COC21CCN(Cc2ccccc2)CC1: 6.37
CC(C)CCN1CCC2(CC1)OCCc1c2cnn1-c1ccccc1: 7.08
COC1Cc2c(cnn2-c2ccccc2)C2(CCN(Cc3ccco3)CC2)O1 (stereo not shown): 5.28
COC1Cc2c(cnn2-c2ccccc2)C2(CCN(CC(C)C)CC2)O1 (stereo not shown): 6.03

Task item: # get_value(readout= pKi, system= σ2-receptor (Rattus norvegicus)) for CCCN1CCC2(CC1)OC(OC)Cc1c2cnn1-c1ccccc1 (stereo not shown)
Reply: 5.52

Task item: # get_value(readout= pKi, system= σ2-receptor (Rattus norvegicus)) for COc1ccc(CN2CCC3(CC2)OC(OC)Cc2c3cnn2-c2ccccc2)cc1 (stereo not shown)
Reply: 6.03

Task item: # get_value(readout= pKi, system= σ2-receptor (Rattus norvegicus)) for CCCCCCCCN1CCC2(CC1)OC(OC)Cc1c2cnn1-c1ccccc1 (stereo not shown)
Reply: 6.68

Task item: # get_value(readout= pKi, system= σ2-receptor (Rattus norvegicus)) for COC1Cc2c(cnn2-c2ccccc2)C2(CCN(CC3CCCCC3)CC2)O1 (stereo not shown)
Reply: 6.96

Task item: # get_value(readout= pKi, system= σ2-receptor (Rattus norvegicus)) for COC1Cc2c(cnn2-c2ccccc2)C2(CCN(C(C)C)CC2)O1 (stereo not shown)
Reply: 5.49

Task item: # get_value(readout= pKi, system= σ2-receptor (Rattus norvegicus)) for COC1Cc2c(cnn2-c2ccccc2)C2(CCN(CCc3ccccc3)CC2)O1 (stereo not shown)
Reply: 6.24

Task item: # get_value(readout= pKi, system= σ2-receptor (Rattus norvegicus)) for CCCCN1CCC2(CC1)OC(OC)Cc1c2cnn1-c1ccccc1 (stereo not shown)
Reply: 6.12

Task item: # get_value(readout= pKi, system= σ2-receptor (Rattus norvegicus)) for COC1Cc2c(cnn2-c2ccccc2)C2(CCN(CCCCc3ccccc3)CC2)O1 (stereo not shown)
Reply: 6.37

Task item: # get_value(readout= pKi, system= σ2-receptor (Rattus norvegicus)) for CC(C)=CCN1CCC2(CC1)OCCc1c2cnn1-c1ccccc1
Reply: 6.57

Task item: # get_value(readout= pKi, system= σ2-receptor (Rattus norvegicus)) for Cn1ncc2c1CCOC21CCN(CCCc2ccccc2)CC1
Reply: 5.97

###

- target of assay: σ1-receptor (Cavia porcellus, UniProt Q60492)
- Sequence (Q60492 whole entry): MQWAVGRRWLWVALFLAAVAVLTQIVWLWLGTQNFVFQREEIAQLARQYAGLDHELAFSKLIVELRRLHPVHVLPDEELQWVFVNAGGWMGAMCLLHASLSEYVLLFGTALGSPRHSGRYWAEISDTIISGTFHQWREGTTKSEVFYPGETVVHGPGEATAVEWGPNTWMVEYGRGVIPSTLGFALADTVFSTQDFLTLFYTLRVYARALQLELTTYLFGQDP
- test summary: Sigma 1 (Version B) radioligand binding, [3H]-(+)-pentazocine, guinea pig brain preparation
- Set-up: the σ1-receptor preparation was prepared from guinea pig brain; from tissue; host or cells: guinea pig brain membrane homogenate
- condition details: version B; guinea pig brain; [3H]-(+)-pentazocine 2 nM; read-out: Binding σ1 Ki
Reported values of pKi for individual entries
pKi here: minus log base 10 of the concentration, concentration in moles per litre.

Answered cases to consult:
CC(C)CCN1CCC2(CC1)OCCc1c2cnn1-c1ccccc1: 9.01
COC1OC2(CCNCC2)c2cnn(-c3ccccc3)c21 (stereo not drawn): 5.92
CC(C)CCN1CCC2(CC1)OCCc1c2cnn1C: 7.52
CCCCN1CCC2(CC1)OC(OC)c1c2cnn1-c1ccccc1 (stereo not drawn): 8.89
Cn1ncc2c1CCOC21CCN(CCCc2ccccc2)CC1: 7.76

Task item: Consider the molecule c1ccc(-n2ncc3c2CCOC32CCN(CC3CCCCC3)CC2)cc1 and give its measured pKi.
Reply: 9.37
